Molecular target: UniProtKB Q12809
Sequence (Q12809 whole entry): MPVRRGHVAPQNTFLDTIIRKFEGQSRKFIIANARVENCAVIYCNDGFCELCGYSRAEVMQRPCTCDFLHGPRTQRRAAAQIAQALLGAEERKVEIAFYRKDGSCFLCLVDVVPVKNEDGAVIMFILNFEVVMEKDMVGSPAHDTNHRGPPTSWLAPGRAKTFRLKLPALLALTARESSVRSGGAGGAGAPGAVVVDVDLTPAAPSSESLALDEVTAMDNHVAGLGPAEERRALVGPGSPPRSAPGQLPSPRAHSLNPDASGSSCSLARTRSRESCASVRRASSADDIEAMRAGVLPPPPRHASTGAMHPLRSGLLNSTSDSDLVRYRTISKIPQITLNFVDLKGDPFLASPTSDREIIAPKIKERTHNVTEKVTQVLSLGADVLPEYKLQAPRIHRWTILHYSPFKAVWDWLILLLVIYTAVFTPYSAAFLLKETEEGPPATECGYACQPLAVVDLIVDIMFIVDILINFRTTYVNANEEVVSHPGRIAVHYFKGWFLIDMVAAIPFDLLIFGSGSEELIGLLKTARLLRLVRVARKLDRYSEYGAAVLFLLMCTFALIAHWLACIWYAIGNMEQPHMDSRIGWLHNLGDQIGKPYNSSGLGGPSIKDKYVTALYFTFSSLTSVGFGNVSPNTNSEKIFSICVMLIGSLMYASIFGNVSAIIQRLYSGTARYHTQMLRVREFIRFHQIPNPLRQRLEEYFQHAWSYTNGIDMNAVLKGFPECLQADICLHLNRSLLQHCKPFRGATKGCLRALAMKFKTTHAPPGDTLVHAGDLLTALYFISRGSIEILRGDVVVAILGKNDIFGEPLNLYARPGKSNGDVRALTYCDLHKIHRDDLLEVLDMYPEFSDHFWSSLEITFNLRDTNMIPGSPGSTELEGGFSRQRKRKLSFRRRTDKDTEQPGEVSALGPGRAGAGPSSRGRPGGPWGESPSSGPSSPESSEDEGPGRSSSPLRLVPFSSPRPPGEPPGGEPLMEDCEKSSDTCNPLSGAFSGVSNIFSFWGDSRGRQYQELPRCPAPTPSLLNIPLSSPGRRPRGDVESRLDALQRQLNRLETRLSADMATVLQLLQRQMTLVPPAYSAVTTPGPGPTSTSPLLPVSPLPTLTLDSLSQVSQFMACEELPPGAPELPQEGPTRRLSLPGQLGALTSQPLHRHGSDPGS
Test: in vitro
Description: Inhibition of human ERG at 20 uM relative to control
Lab note: anything with inhibition at 20 µM at or over 20% counts as true (1); the rest go in false (0).

Lookup: Hi, just wondering whether "COc1ccc(-c2cc(C)c(Nc3ncc4c(n3)n(C3CCOCC3)c(=O)n4C)cn2)cn1" shows inhibition at 20 µM of 20% or higher.
Found: false (0)

Lookup: Hi, just wondering whether "COc1ccc(-c2cc(C)c(Nc3ncc4c(n3)n(C3CCOCC3)c(=O)n4C)cn2)cc1OC" shows inhibition at 20 µM of 20% or higher.
Found: false (0)

Lookup: Hi, just wondering whether "Cc1cc(-c2nc[nH]n2)ccc1Nc1ncc2c(n1)n(C1CCOCC1)c(=O)n2C" shows inhibition at 20 µM of 20% or higher.
Found: false (0)

Lookup: Hi, just wondering whether "Cc1cc(-c2cnn(C(F)F)c2)ncc1Nc1ncc2c(n1)n(C1CCOCC1)c(=O)n2C" shows inhibition at 20 µM of 20% or higher.
Found: true (1)

Lookup: Hi, just wondering whether "Cc1cc(-c2ccc(C=O)o2)ncc1Nc1ncc2c(n1)n(C1CCOCC1)c(=O)n2C" shows inhibition at 20 µM of 20% or higher.
Found: false (0)

###

Would you mind telling me the reported AUC(0-t) at 24 h of each entry?
Assay: in vivo
Conditions: Sprague-Dawley, rat, po, 5 mg/kg
Please state the figure in ng·h/mL; there is no need to write the unit.

Lookup: Give recorded AUC(0-t) at 24 h. "COc1ccc(-c2cc(C)c(Nc3ncc4c(n3)n(C3CCOCC3)c(=O)n4C)cn2)cn1"
Found: 7860

Lookup: Give recorded AUC(0-t) at 24 h. "Cc1cnc(-c2cnn(C)c2)cc1Nc1ncc2c(n1)n(C1CCOCC1)c(=O)n2C"
Found: 6470

Lookup: Give recorded AUC(0-t) at 24 h. "Cc1cc(-c2nc[nH]n2)ccc1Nc1ncc2c(n1)n(C1CCOCC1)c(=O)n2C"
Found: 1350

Lookup: Give recorded AUC(0-t) at 24 h. "Cc1cc(-c2cccs2)ncc1Nc1ncc2c(n1)n(C1CCOCC1)c(=O)n2C"
Found: 277

Lookup: Give recorded AUC(0-t) at 24 h. "COc1ccc(-c2cc(C)c(Nc3ncc4c(n3)n(C3CCOCC3)c(=O)n4C)cn2)cc1OC"
Found: 3450

Lookup: Give recorded AUC(0-t) at 24 h. "Cc1cc(-c2ccc(C=O)o2)ncc1Nc1ncc2c(n1)n(C1CCOCC1)c(=O)n2C"
Found: 7.83

Lookup: Give recorded AUC(0-t) at 24 h. "Cc1cc(-c2cnn(C(F)F)c2)ncc1Nc1ncc2c(n1)n(C1CCOCC1)c(=O)n2C"
Found: 4440

###

Assay: in vivo
Conditions: Sprague-Dawley, rat, po, 5 mg/kg
Lab note: anything with bioavailability at 24 h at or over 80% counts as True; the rest go in False.

Lookup: Hi, just wondering whether "Cc1cnc(-c2cnn(C)c2)cc1Nc1ncc2c(n1)n(C1CCOCC1)c(=O)n2C" shows bioavailability at 24 h of 80% or higher.
Found: True

Lookup: Hi, just wondering whether "Cc1cc(-c2nc[nH]n2)ccc1Nc1ncc2c(n1)n(C1CCOCC1)c(=O)n2C" shows bioavailability at 24 h of 80% or higher.
Found: False

Lookup: Hi, just wondering whether "Cc1cc(-c2cccs2)ncc1Nc1ncc2c(n1)n(C1CCOCC1)c(=O)n2C" shows bioavailability at 24 h of 80% or higher.
Found: True

Lookup: Hi, just wondering whether "COc1ccc(-c2cc(C)c(Nc3ncc4c(n3)n(C3CCOCC3)c(=O)n4C)cn2)cc1OC" shows bioavailability at 24 h of 80% or higher.
Found: False

Lookup: Hi, just wondering whether "COc1ccc(-c2cc(C)c(Nc3ncc4c(n3)n(C3CCOCC3)c(=O)n4C)cn2)cn1" shows bioavailability at 24 h of 80% or higher.
Found: False

Lookup: Hi, just wondering whether "Cc1cc(-c2ccc(C=O)o2)ncc1Nc1ncc2c(n1)n(C1CCOCC1)c(=O)n2C" shows bioavailability at 24 h of 80% or higher.
Found: False

Lookup: Hi, just wondering whether "Cc1cc(-c2cnn(C(F)F)c2)ncc1Nc1ncc2c(n1)n(C1CCOCC1)c(=O)n2C" shows bioavailability at 24 h of 80% or higher.
Found: True
